system: U251 CNS
Recorded endpoint: GI50

• Cc1cc(F)c(C(=O)Nc2cccc(-c3nncn3C(C)C)n2)cc1-n1cnc(C2CC2)c1 = 17.1 µM

## Task Write down measured GI50 (U251 CNS) for this compound. CC/C=C\C[C@H]1C/C=C2/C(=O)C=C[C@H]2C/C=C\CCCC(=O)O1
## Result 1.95 µM

## Task # return GI50 of CN(C)c1ccc(C(=S)c2ccc(N(C)C)cc2)cc1 (system: U251 CNS)
## Result 6.34 µM

====

test system: HT29 colon; test: NCI tumour cell line growth inhibition, 48 h
# key: entry, value: TGI

- O=c1oc2ccc([N+](=O)[O-])cc2nc1/C=C(\O)c1ccccc1: > 100 µM
- O=C(NCCCCCCCCCCCCNC(=O)c1cnc2ccccc2n1)c1cnc2ccccc2n1: > 100 µM
- CC(=O)OC1C[C@H]2C(OC(=O)c3ccccc3)C3C4(OC(C)=O)COC4C[C@H](OC(C)=O)[C@@]3(C)C(OC(C)=O)[C@H](OC(C)=O)C(=C1C)C2(C)C (some centres undefined): > 100 µM
- O=C(Nc1ccccc1[N+](=O)[O-])/C(=N/Nc1cccc(Cl)c1)c1c(O)c2ccccc2oc1=O: > 100 µM
- C/C=C1\CC(C(=O)OCC)CCCCCCC1=O (centres undefined): > 100 µM

## Task Indicate the recorded TGI value for this molecule: c1ccc(CN2CCC(=NN3CCCCC3)CC2)cc1
## Result > 100 µM

## Task Please list TGI recorded for the molecule COc1ccc(-c2nn(-c3cccc(Cl)c3)cc2/C=C2\NC(=S)N(c3ccc(Cl)cc3)C2=O)cc1
## Result 10.6 µM

## Task Supply reported TGI belonging to this molecule: C[C@H]1CCC/C=C/C2CC(OC(=O)CN(C)C)CC2C(OC(=O)CN(C)C)/C=C/C(=O)O1 (some centres undefined)
## Result 3.8 µM

## Task Determine from records and report TGI for CCCCCC/C=C/C#CCCCCCCCC(=O)O
## Result > 100 µM

====

tested on: BT-549 breast; assay: NCI tumour cell line growth inhibition, 48 h
Recorded endpoint: TGI

Observe how each entry below is paired with its result.
* O=C(N/N=C(/COc1ccccc1)N=Cc1ccncc1)c1ccncc1 | > 100 µM
* C=CC(=O)N[C@@H]1CN(c2nc(Nc3cn(C)nc3OC)c3ncn(C)c3n2)C[C@H]1F | > 100 µM
* CN(C)c1ccc(/C=C/C(=O)c2cc(C(C)(C)C)c(O)c(C(C)(C)C)c2)cc1 | > 100 µM

## Task Output reported TGI of the molecule COc1ccc(-c2nc(-c3ccc(OC)cc3)n(-c3ccccc3)n2)cc1 on BT-549 breast.
## Result > 100 µM

## Task State the measured TGI (BT-549 breast) of CC1(C)OB(c2ccc(N(CCOS(C)(=O)=O)CCOS(C)(=O)=O)cc2)OC1(C)C
## Result 41 µM

## Task Report measured TGI on BT-549 breast; entry: O=C(O)c1cc2ccccc2c(Cc2c(O)c(C(=O)O)cc3ccccc23)c1O
## Result > 100 µM

## Task State TGI on BT-549 breast. Entry: O=c1cc(-c2ccc(Cl)cc2)[nH]c2ccccc12
## Result > 100 µM

## Task Please respond with reported TGI (system BT-549 breast) for Cc1ccc2c(c1)[n+](=O)c(C(=O)c1cccs1)c(C(F)(F)F)n2[O-] .
## Result 1.97 µM

## Task Write TGI of Cc1nc2ccccn2c1NC(=O)NN1C(=O)CSC1c1ccc(Cl)cc1 (stereo not given) ; system used: BT-549 breast
## Result > 100 µM

## Task Using BT-549 breast as the test system, report measured TGI of CCOC(=O)COc1cc(-c2ccccc2F)nc2cc3c(cc12)OCO3 .
## Result > 100 µM

====

system: OVCAR-3 ovarian; experiment: NCI tumour cell line growth inhibition, 48 h
Recorded TGI values for a group of molecules are listed next.
Respond numerically; units are µM and should not be typed.

## Task Quote TGI reported for COc1ccc2c(c1)CC[C@@H]1[C@@H]2CC[C@]2(C)/C(=N/OCCN3CCCC3)CC[C@@H]12 please.
## Result 16.2

====

system: RPMI-8226 leukemia; test: NCI tumour cell line growth inhibition, 48 h; in the data active means GI50 below about 0.43 µM; inactive means the rest
Tick one outcome: active, inactive

## Task For C=CC(=O)N[C@@H]1CN(c2nc(Nc3cn(C)nc3OC)c3ncn(C)c3n2)C[C@H]1F , which call appears in the assay record?
## Result inactive

## Task Outcome logged for Cc1cc(F)c(C(=O)Nc2cccc(-c3nncn3C(C)C)n2)cc1-n1cnc(C2CC2)c1 in this assay:
## Result inactive

## Task What call does the record list for O=c1cc(-c2ccc(Cl)cc2)[nH]c2ccccc12 ?
## Result inactive

## Task Call for entry CN1CCN(CCCOc2cccc3nc(Nc4cc(Cl)cc(Cl)c4)ccc23)CC1 :
## Result inactive

## Task Please state the recorded outcome for this compound: Cc1c2cnccc2c(C)c2c1c1cc(O)ccc1n2C(C)C
## Result inactive

## Task Dear colleague, could you share the recorded outcome for C[C@H]1CCC/C=C/C2CC(OC(=O)CN(C)C)CC2C(OC(=O)CN(C)C)/C=C/C(=O)O1 (some centres undefined) when you have a moment?
## Result inactive

====

system: NCI-H522 lung; assay: NCI tumour cell line growth inhibition, 48 h
Measured TGI, listed per entry.

Example results:
• C[C@@H]1C[C@H]2OC(=O)[C@@]3(C)CCC[C@@](C)([C@@H]23)[C@@]1(O)CCc1ccoc1 = > 100 µM
• CCOC(=O)c1oc2c(OC)ccc3c2c1CCC3 = > 100 µM

With those in mind, consider the next compound.
## Task Recall the reported TGI of CCCCCC/C=C/C#CCCCCCCCC(=O)O when tested on NCI-H522 lung.
## Result > 100 µM

====

tested on: SF-295 CNS; assay: NCI tumour cell line growth inhibition, 48 h
Recorded endpoint: TGI

Some solved cases for reference:
* CC(=O)Nc1ccccc1-c1nc2ccccc2nc1-c1ccccc1 | > 100 µM
* CCCCCCCCSC(=O)NCCCC | > 100 µM
* O=C(Nc1ccccc1[N+](=O)[O-])/C(=N/Nc1cccc(Cl)c1)c1c(O)c2ccccc2oc1=O | > 100 µM
* O=C(CCC(=O)Nc1ccccc1C(F)(F)F)N/N=C1\C(=N\NC(=O)CCC(=O)Nc2ccccc2C(F)(F)F)C(c2ccc3c(c2)OCO3)Oc2ccccc21 (centres undefined) | > 100 µM
* NC1=NN(c2ccccc2)C(=O)C1C(=O)C(=O)Nc1ccc(Cl)cc1 (centres undefined) | > 100 µM
* CN(C)c1ccc(/C=C/C(=O)c2cc(C(C)(C)C)c(O)c(C(C)(C)C)c2)cc1 | 5.33 µM
* NC(Cc1ccc(O)cn1)C(=O)NC(C(=O)O)c1ccccc1 (centres undefined) | > 100 µM
* CC[C@H](C)[C@H](NC(=O)N(CCC#N)CCN(CCN(C(=O)N[C@@H](Cc1ccccc1)C(=O)OC)c1ccccc1)C(=O)N[C@H](C(=O)OC)C(C)C)C(=O)OC | 37.9 µM
* Clc1ccc(Nc2ncco2)cc1Cl | > 10 µM
* N#Cc1ncc(C(Cl)Cl)nc1Cl | > 10 µM

## Task Please tell me the measured TGI for O=C(N/N=C(/COc1ccccc1)N=Cc1ccncc1)c1ccncc1 ; system: SF-295 CNS.
## Result > 100 µM

## Task Write TGI of C=CCn1c(-c2cc(C(C)(C)C)c(O)c(C(C)(C)C)c2)cs/c1=N\C(P(=O)(O)O)P(=O)(O)O ; system used: SF-295 CNS
## Result > 100 µM

## Task Please tell me the measured TGI for OC1(c2ccccc2)CC2CCC(C1)N2CCCC(O)(c1ccccc1)c1ccccc1 (centres undefined) ; system: SF-295 CNS.
## Result 10.6 µM

## Task For SF-295 CNS, give TGI of the listed molecule: CCCCC(C(=O)C(=O)Nc1ccc(C)cc1C)C(=O)C(C)C (centres undefined)
## Result > 100 µM

## Task Please tell me the measured TGI for N#CCCN(CCC#N)c1ccc(/C=C(/NC(=O)c2cc([N+](=O)[O-])ccc2Cl)C(=O)N=[N+]=[N-])cc1 ; system: SF-295 CNS.
## Result > 100 µM

## Task Report value: TGI, system: SF-295 CNS, molecule: C[C@@H](Nc1nc(N[C@H](C)C(F)(F)F)nc(-c2cccc(Cl)n2)n1)C(F)(F)F
## Result > 100 µM

## Task Please report the measured TGI for Nc1nc(Cl)cc(NCC2(CO)CCCCC2)n1 tested on SF-295 CNS.
## Result > 100 µM

## Task State, for SF-295 CNS, measured TGI of the molecule listed here: O=C(CCc1nc(=S)[nH][nH]1)Nc1cc(Cl)ccc1Cl
## Result > 100 µM

## Task Jot down TGI (SF-295 CNS) of CC1(C)OB(c2ccc(N(CCOS(C)(=O)=O)CCOS(C)(=O)=O)cc2)OC1(C)C .
## Result > 55 µM

## Task Report TGI from SF-295 CNS testing of Oc1ccc(-c2c3ccccc3c(-c3ccc(O)cc3)c3ccccc23)cc1
## Result > 100 µM

## Task Specify TGI for Cc1ccc(S(=O)(=O)NC(=O)C2S(=O)(=O)OCCOS2(=O)=O)cc1 , system SF-295 CNS.
## Result > 100 µM

## Task Specify the recorded TGI for COc1ccc2c(c1)CC[C@@H]1[C@@H]2CC[C@]2(C)/C(=N/OCCN3CCCC3)CC[C@@H]12 , system: SF-295 CNS.
## Result 4.63 µM

## Task Determine reported TGI for c1ccc2c(c1)[nH]c1cnc3c4ncccc4[nH]c3c12 ; test system: SF-295 CNS.
## Result > 100 µM

## Task Please tell me the measured TGI for O=C(NN1C(=O)C(Cl)C1c1cccc(O)c1)c1ccccc1O (centres undefined) ; system: SF-295 CNS.
## Result > 100 µM

## Task Quote TGI with test system SF-295 CNS for CCOC(=O)/C(=C/CC/C(C)=C/CC/C(C)=C/CCc1ccoc1)CC(=O)N1CCCCC1
## Result 5.08 µM

## Task Report value: TGI, system: SF-295 CNS, molecule: C/C(NNC(=O)c1ccccc1O)=C1\C=Nc2ccccc2S1
## Result > 100 µM

## Task // output TGI; input CC(Oc1cc2oc(=O)cc(-c3ccccc3)c2cc1Cl)C(=O)O (centres undefined) ; system SF-295 CNS
## Result > 100 µM

## Task Report value only: TGI, SF-295 CNS, Cc1cc(C)cc(Nc2nnc3n2S(=O)(=O)c2cc(C)c(Cl)cc2S3)c1
## Result > 100 µM

## Task Report the value of TGI obtained on SF-295 CNS for O=C(Nc1ccc(OS(=O)(=O)c2ccc(F)cc2)cc1)C12CC3CC(CC(C3)C1)C2 .
## Result 29.1 µM

## Task // fetch TGI; item: CCO/C(O)=C(/C(=N)N1CCOCC1)C(=O)Nc1cccc(C(F)(F)F)c1 ; system: SF-295 CNS
## Result > 100 µM

## Task State recorded TGI with SF-295 CNS, entry c1ccc(CN2CCC(=NN3CCCCC3)CC2)cc1 , no comment.
## Result > 100 µM
